Tested on: U2OS
protocol_text: Multiplex assay against U2OS
Format: toxicity, cell-based
conditions: human, 48 h, 10 µM, compound concentration 10 uM, replicate 1
attribute_measured: Total Cell Count

Please look up its Total Cell Count: "CN1CCN(c2nc3cc(C(F)(F)F)ccc3n3cccc23)CC1.O=C(O)/C=C\C(=O)O.O=C(O)/C=C\C(=O)O"
299

// lookup Total Cell Count for "Cc1ccc(-c2ccc(F)cc2COc2ccc(CCC(=O)O)cc2)cc1"
421

Value lookup for Total Cell Count; key = Cl.Clc1ccc2nsnc2c1NC1=NCCN1 [TIZANIDINE HYDROCHLORIDE]
459

Please give the measured Total Cell Count for this molecule: Cc1ccc(F)cc1C(=O)Nc1ccc(C(=O)N2Cc3cccn3Cc3ccccc32)c(Cl)c1 [LIXIVAPTAN]
232

Please look up its Total Cell Count: N#Cc1c(N)nc(SCc2csc(-c3ccc(Cl)cc3)n2)c(C#N)c1-c1ccc(OCCO)cc1 [CAPADENOSON]
285

====

System: Fibroblast
protocol_text: Multiplex assay against human fibroblast
Assay type: toxicity, cell-based
conditions: 12 h, 10 µM, compound concentration 10 uM, replicate 1
# note: exactly 2% is not below, so it is not fulfilled; use fulfilled for Population Hoechst High Intensity Objects (%) strictly under it

Quick check: Population Hoechst High Intensity Objects (%) of CCCN1CCC[C@@H]2Cc3n[nH]cc3C[C@H]21.Cl [QUINPIROLE HYDROCHLORIDE] under 2%?
not fulfilled

Hello, I'm reviewing records and need to know if Population Hoechst High Intensity Objects (%) of "CCCn1c(=O)c2[nH]c(C3CCCC3)nc2n(CCC)c1=O" is below 2%. Could you check?
not fulfilled

Consider COc1ccc2c(c1)C(C(=O)N(Cc1ccc(N(C)C)cc1)c1ccc(C(C)C)cc1)CCC2.Cl (centres undefined) . Does its Population Hoechst High Intensity Objects (%) lie strictly below 2%?
fulfilled

Please let me know if CC1(COc2ccc3c(c2)ncn3-c2ccc3cccc(N4CCC(N)CC4)c3n2)COC1 [CRENOLANIB] shows Population Hoechst High Intensity Objects (%) below 2%.
not fulfilled

Does "Oc1c(CN2CCN(c3ccccn3)CC2)cc(Cl)c2cccnc12" have Population Hoechst High Intensity Objects (%) strictly under 2%?
not fulfilled

Field: below-cutoff. Rule: recorded Population Hoechst High Intensity Objects (%) strictly less than 2%. Subject: Cc1ccccc1C(=O)Nc1ccc(C(=O)N2CCCC(N(C)C)c3ccccc32)cc1.Cl (centres undefined)
fulfilled

====

Could you please report measured Population Apoptotic (%) for the items listed next?
Test system: U2OS
protocol_text: Multiplex assay against U2OS
Type: toxicity, cell-based
conditions: human, 24 h, 10 µM, compound concentration 10 uM, replicate 2
Please respond with the number in % and leave the unit unwritten.

Which Population Apoptotic (%) is reported for this compound? N[C@@]1(C(=O)O)CO[C@H]2[C@H](C(=O)O)[C@H]21 [LY-379268]
90

# Population Apoptotic (%) lookup, item "Oc1c(CN2CCN(c3ccccn3)CC2)cc(Cl)c2cccnc12"
100

// returns reported Population Apoptotic (%) for input "CN(C)CCCc1cc(C(=O)Nc2ccc(-c3ccncc3)cc2)ccc1O.Cl.Cl"
66

May I ask what Population Apoptotic (%) has been recorded for CC(=O)NCCc1c(Cc2ccccc2)[nH]c2ccccc12 [LUZINDOLE] ?
85

Fill in: Population Apoptotic (%) of CCCN1CCC[C@@H]2Cc3n[nH]cc3C[C@H]21.Cl [QUINPIROLE HYDROCHLORIDE] is ___
92

What value of Population Apoptotic (%) has been recorded for this entry: CCCC(CCC)C(=O)O [VALPROIC ACID]
100

Return reported Population Apoptotic (%); argument: "O=C1COc2nccc(-c3ccccc3F)c2CN1Cc1cc(C(F)(F)F)cc(C(F)(F)F)c1"
100

Query: Population Apoptotic (%); subject: O=C(O)c1cc2ccccc2c(Cc2c(O)c(C(=O)O)cc3ccccc23)c1O [PAMOIC ACID]
90

====

System: HEK-293T
protocol_text: Multiplex assay against HEK293T
Format: toxicity, cell-based
conditions: human, 12 h, 1 µM, compound concentration 1 uM, replicate 1
attribute_measured: Population Mitochondria Different-Phenotype (%)
Write it as a number; the unit % goes unstated.

What value of Population Mitochondria Different-Phenotype (%) has been reported for the following molecule? CC(C)(C)c1ccc(S(=O)(=O)Nc2ccc(Cl)cc2C(=O)c2cc[n+]([O-])cc2)cc1 [VERCIRNON]
33

Sample "Cc1nc2ccc(Oc3ccc(F)cc3)cc2c(=O)n1C[C@H]1CCCN(C(C)C)C1.Cl" — what was its Population Mitochondria Different-Phenotype (%)?
50

Population Mitochondria Different-Phenotype (%) for N[C@@]1(C(=O)O)CO[C@H]2[C@H](C(=O)O)[C@H]21 [LY-379268] ?
38

Name the reported Population Mitochondria Different-Phenotype (%) value associated with the molecule "CC[C@H]1OC(=O)[C@H](C)[C@@H](O[C@H]2C[C@@](C)(OC)[C@@H](O)[C@H](C)O2)[C@H](C)[C@@H](O[C@@H]2O[C@H](C)C[C@H](N(C)C)[C@H]2O)[C@@]2(C)CC(C)=C(O2)[C@H](C)[C@@H](O)[C@]1(C)O"
56

Data request, read-out Population Mitochondria Different-Phenotype (%), for CCCC(CCC)C(=O)O [VALPROIC ACID]
29

Dear colleague, I am looking for the recorded Population Mitochondria Different-Phenotype (%) of the following molecule: CCCN1CCC[C@@H]2Cc3n[nH]cc3C[C@H]21.Cl [QUINPIROLE HYDROCHLORIDE]
37

I have this molecule here, "Cc1ccc(-c2ccc(F)cc2COc2ccc(CCC(=O)O)cc2)cc1" , and I need its recorded Population Mitochondria Different-Phenotype (%).
36

Fill in: Population Mitochondria Different-Phenotype (%) of "COc1c(C)cc(NC(=O)c2nn(Cc3ccc(F)cc3)c3c2CN(C(=O)c2ccc[nH]2)C[C@]3(C)C(N)=O)cc1C" is ___
51

If you can, please state the reported Population Mitochondria Different-Phenotype (%) value of C[C@@H]1C[C@H]2[C@@H]3CCC4=CC(=O)C=C[C@]4(C)[C@@]3(F)[C@@H](O)C[C@]2(C)[C@@]1(O)C(=O)CO [DEXAMETHASONE] .
45

Please report the recorded Population Mitochondria Different-Phenotype (%) for "CN(C)CCCc1cc(C(=O)Nc2ccc(-c3ccncc3)cc2)ccc1O.Cl.Cl" .
48

Data request, read-out Population Mitochondria Different-Phenotype (%), for "CSCC[C@H](NC=O)C(=O)N[C@@H](CC(C)C)C(=O)N[C@@H](Cc1ccccc1)C(=O)O"
47

Which Population Mitochondria Different-Phenotype (%) is listed for CNC[C@H](O)c1ccc(O)c(O)c1 [EPINEPHRINE] ?
31

Suppose we examine the molecule "COc1ccccc1N1CCN(CCCCNC(=O)c2ccc3ccccc3c2)CC1.Cl" ; what Population Mitochondria Different-Phenotype (%) value has been reported?
53

Tell me the measured Population Mitochondria Different-Phenotype (%) of "CN(C)c1ccnc2sc3c(=O)n(N4CCCCCC4)cnc3c12" , please.
50

I would be grateful if you could share the reported Population Mitochondria Different-Phenotype (%) for COc1ccc2c(c1)C(C(=O)N(Cc1ccc(N(C)C)cc1)c1ccc(C(C)C)cc1)CCC2.Cl (configuration not stated) .
39

Using the record for C[C@H](NC(=O)c1c(C(F)F)nn(C)c1Oc1cccc(C(F)(F)F)c1)c1ccc(C(=O)O)cc1 [PALUPIPRANT] , report its Population Mitochondria Different-Phenotype (%).
44

# lookup: Population Mitochondria Different-Phenotype (%) of O=C(O)Cc1ccccc1Nc1c(Cl)cccc1Cl [DICLOFENAC]
53

====

System: Fibroblast
protocol_text: Multiplex assay against human fibroblast
Format: toxicity, cell-based
conditions: 12 h, 10 µM, compound concentration 10 uM, replicate 1
attribute_measured: Population Mitotic Cells (%)
Provide only the numeric value, understood in %.

Field: Population Mitotic Cells (%) (Fibroblast). Entry: "Cc1ccc(F)cc1C(=O)Nc1ccc(C(=O)N2Cc3cccn3Cc3ccccc32)c(Cl)c1"
65

Find Population Mitotic Cells (%) (Fibroblast) for the entry CCCN1CCC[C@@H]2Cc3n[nH]cc3C[C@H]21.Cl [QUINPIROLE HYDROCHLORIDE]
41

Fill in the recorded Population Mitotic Cells (%) for this compound, with Fibroblast as test system: CNC[C@H](O)c1ccc(O)c(O)c1 [EPINEPHRINE]
60

Query the reported Population Mitotic Cells (%) for Fibroblast; item: "CCNC1(C(N)=O)CCN(c2ncnc3c2nc(-c2ccccc2Cl)n3-c2ccc(Cl)cc2)CC1"
42

Lab note: need Population Mitotic Cells (%) with Fibroblast for entry "CN1CCN(c2nc3cc(C(F)(F)F)ccc3n3cccc23)CC1.O=C(O)/C=C\C(=O)O.O=C(O)/C=C\C(=O)O" , please look it up.
59

API: value(readout= Population Mitotic Cells (%), system= Fibroblast, query= "Cc1nc2ccc(Oc3ccc(F)cc3)cc2c(=O)n1C[C@H]1CCCN(C(C)C)C1.Cl" )
46

Item: "O=C(NCC(=O)N1CC[C@H](N[C@H]2CC[C@@](O)(c3ccc(-c4ncccn4)cn3)CC2)C1)c1cccc(C(F)(F)F)c1" Test system: Fibroblast Read-out: Population Mitotic Cells (%) Value: ?
40

Field: Population Mitotic Cells (%) (Fibroblast). Entry: "CC(=O)NCCc1c(Cc2ccccc2)[nH]c2ccccc12"
80
